# testedOn: T1, hMSLN-His-Avi (human, UniProt Q13421 296-598, single biotin on the Avi tag in the biotinylated form)
# T1 construct: Monomeric; also called human MSLN-His-Avi; hMSLN-Avi-His
# testDetails: SPR, mAb2 captured on Protein G, hMSLN-His-Avi in solution
# Protocol: The association time was 5 min and the dissociation time was 5 min. Running buffer was HBS-EP (GE Healthcare BR100188). Flow cells were regenerated by injecting Glycine-HCl pH2.1 at a flow rate of 30 μl/min for 15 seconds. The data was analysed as described in Example 7.1.
recordedMetric: pKd
Recall that pKd is obtained by taking minus log10 of the concentration measured in molar.

[[record]]
binder = "FS22-172-003-AA/FS28-256-273 (bispecific antibody, human IgG1, kappa, L234A L235A, V domains shown, IgG1 mAb^2 with LALA) VH: EVQLLESGGGLVQPGGSLRLSCAASGFTFTHTYMSWVRQAPGKGLEWVSSISPTYSTTNYADSVKGRFTISRDNNKNTLYLQMNSLRAEDTAVYYCARYNAYHAALDYWGQGTLVTVSS VL: EIVLTQSPGTLSLSPGERATLSCRASQSVSSSYLAWYQQKPGQAPRLLIYGASSRATGIPDRFSGSGSGTDFTLTISRLEPEDFAVYYCQQTVPYPYTFGQGTKVEIKR"
recordedmetric = "pKd"
readoutvalue = 8.13

[[record]]
binder = "FS22-172-003-AA/FS28-256-023 (bispecific antibody, human IgG1, kappa, L234A L235A, V domains shown, IgG1 mAb^2 with LALA) VH: EVQLLESGGGLVQPGGSLRLSCAASGFTFTQTYMSWVRQAPGKGLEWVSNISPTYSTTNYADSVKGRFTISRDNSKNTLYLQMNSLRAEDTAVYYCARYNAYQIGLDYWGQGTLVTVSS VL: EIVLTQSPGTLSLSPGERATLSCRASQSVSSSYLAWYQQKPGQAPRLLIYGASSRATGIPDRFSGSGSGTDFTLTISRLEPEDFAVYYCQQHNQYPNTFGQGTKVEIKR"
recordedmetric = "pKd"
readoutvalue = 7.25

[[record]]
binder = "FS22-172-003-AA/FS28-256-021 (bispecific antibody, human IgG1, kappa, L234A L235A, V domains shown, IgG1 mAb^2 with LALA) VH: EVQLLESGGGLVQPGGSLRLSCAASGFTFTHTYMSWVRQAPGKGLEWVSNISPTYSTTNYADSVKGRFTISRDNNKNTLYLQMNSLRAEDTAVYYCARYNAYHAALDYWGQGTLVTVSS VL: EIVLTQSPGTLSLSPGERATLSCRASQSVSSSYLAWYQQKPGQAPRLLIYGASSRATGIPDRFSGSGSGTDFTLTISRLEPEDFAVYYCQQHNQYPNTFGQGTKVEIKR"
recordedmetric = "pKd"
readoutvalue = 7.71

[[record]]
binder = "FS22-172-003-AA/FS28-256-271 (bispecific antibody, human IgG1, kappa, L234A L235A, V domains shown, IgG1 mAb^2 with LALA; also called anti-human CD137/MSLN mAb^2) VH: EVQLLESGGGLVQPGGSLRLSCAASGFTFTHTYMSWVRQAPGKGLEWVSAISPTYSTTNYADSVKGRFTISRDNNKNTLYLQMNSLRAEDTAVYYCARYNAYHAALDYWGQGTLVTVSS VL: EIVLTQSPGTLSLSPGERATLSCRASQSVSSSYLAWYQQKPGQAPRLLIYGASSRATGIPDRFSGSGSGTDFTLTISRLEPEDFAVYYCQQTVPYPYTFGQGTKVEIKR"
recordedmetric = "pKd"
readoutvalue = 7.74


As a next step, examine the binder that follows.
For the binder FS22-172-003-AA/FS28-024 (bispecific antibody, human IgG1, kappa, L234A L235A, V domains shown, IgG1 mAb^2 with LALA; also called FS28-024 in CD137 mAb^2 format) VH: EVQLLESGGGLVQPGGSLRLSCAASGFTLSYSSMSWVRQAPGKGLEWVSFITPSTGYTHYADSVKGRFTISRDNSKNTLYLQMNSLRAEDTAVYYCARRALTFDYWGQGTLVTVSS VL: EIVLTQSPGTLSLSPGERATLSCRASQSVSSSYLAWYQQKPGQAPRLLIYGASSRATGIPDRFSGSGSGTDFTLTISRLEPEDFAVYYCQQASSYPLTFGQGTKVEIKR , what pKd is on record? 7.33
